target-system: amyloglucosidase (Aspergillus niger, UniProt P69328)
Sequence (P69328 25-640): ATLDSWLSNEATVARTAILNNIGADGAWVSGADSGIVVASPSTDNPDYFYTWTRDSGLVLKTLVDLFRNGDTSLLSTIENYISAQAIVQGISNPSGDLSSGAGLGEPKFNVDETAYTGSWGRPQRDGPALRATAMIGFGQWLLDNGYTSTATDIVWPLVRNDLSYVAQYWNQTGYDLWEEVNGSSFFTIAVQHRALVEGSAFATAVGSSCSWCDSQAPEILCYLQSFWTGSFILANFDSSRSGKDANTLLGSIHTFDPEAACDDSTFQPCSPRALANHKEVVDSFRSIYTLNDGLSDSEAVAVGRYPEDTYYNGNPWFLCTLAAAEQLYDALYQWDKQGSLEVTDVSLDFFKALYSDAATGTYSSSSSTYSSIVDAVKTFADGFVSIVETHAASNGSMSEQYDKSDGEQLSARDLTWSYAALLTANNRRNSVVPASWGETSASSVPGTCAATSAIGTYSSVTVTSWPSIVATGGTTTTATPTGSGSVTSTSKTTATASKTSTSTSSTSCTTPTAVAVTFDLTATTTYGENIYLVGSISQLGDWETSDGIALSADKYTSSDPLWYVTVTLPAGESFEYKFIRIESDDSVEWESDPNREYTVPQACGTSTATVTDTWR
measure: IC50 (mM)
Write it as a number; the unit mM goes unstated.

Test system amyloglucosidase (Aspergillus niger, UniProt P69328); read-out IC50; what value for `NCc1cn(CCCN2C[C@@H](O)C(O)[C@H](O)C2)nn1` ? 1.1
